biological target: UniProt:P29274
Sequence (P29274 whole entry): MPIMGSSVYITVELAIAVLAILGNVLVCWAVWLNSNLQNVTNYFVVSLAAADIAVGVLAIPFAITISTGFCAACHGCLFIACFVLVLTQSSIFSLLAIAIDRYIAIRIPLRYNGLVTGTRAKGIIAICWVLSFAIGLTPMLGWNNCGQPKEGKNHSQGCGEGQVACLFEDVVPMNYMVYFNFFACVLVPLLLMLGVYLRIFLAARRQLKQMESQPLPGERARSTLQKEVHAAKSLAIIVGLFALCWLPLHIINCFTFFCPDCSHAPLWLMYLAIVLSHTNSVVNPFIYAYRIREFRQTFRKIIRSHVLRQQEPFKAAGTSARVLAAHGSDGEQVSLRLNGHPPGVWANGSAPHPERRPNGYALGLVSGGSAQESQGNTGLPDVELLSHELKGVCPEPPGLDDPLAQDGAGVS
The compounds listed here are annotated with their pKi.
# reply with the number alone; pKi is -log10 of concentration in mol/L

COCCn1c(=O)n(C2(C)CC2)c(=O)c2c(C)c(CN3CCNC3=O)sc21: 5.32

Here is another compound to look at.
The observed pKi for COCCn1c(=O)n(C2CC2C)c(=O)c2c(C)c(CN3CCNC3=O)sc21 (single isomer, unassigned) when tested with UniProt:P29274 stands at 6.32

* * *

Target: human adenosine A2b receptor (Homo sapiens)
Sequence (P29275 1-332): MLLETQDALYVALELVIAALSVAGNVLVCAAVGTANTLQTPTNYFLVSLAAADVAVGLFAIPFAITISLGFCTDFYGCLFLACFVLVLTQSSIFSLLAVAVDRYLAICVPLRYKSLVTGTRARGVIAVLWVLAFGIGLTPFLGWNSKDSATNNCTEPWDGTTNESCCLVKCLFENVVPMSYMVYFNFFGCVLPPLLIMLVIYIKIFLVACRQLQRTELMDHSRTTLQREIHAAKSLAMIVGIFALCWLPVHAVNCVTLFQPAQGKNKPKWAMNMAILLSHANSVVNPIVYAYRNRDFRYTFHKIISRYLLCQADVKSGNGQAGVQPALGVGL
Assay: Cellular in vitro reporter gene test for A2b receptor activity (antagonism of NECA)
Settings: recombinant CHO-K1 cells, CRE-luciferase reporter, co-incubation with EC50 concentration of NECA, 3 hours
attribute.measured: IC50
Express the reported value numerically, then name its unit.

In the examples that follow, each entry is paired with its recorded IC50.
Cc1c(CN2CCNC(=O)C2=O)sc2c1c(=O)n(C1CC1)c(=O)n2CCCF: 44 nM
CCC1(n2c(=O)c3c(C)c(CN4CCNC4=O)sc3n(CCOC)c2=O)CC1: 110 nM
COC(=O)N=C1NCCN1Cc1sc2c(c1C)c(=O)n(C1CC1)c(=O)n2CC1CCCO1 (racemic) [Example 42]: 10 nM

--- query ---
Sample `Cc1c(CN2CCNC2=O)sc2c1c(=O)n(C1CC3(CCC3)C1)c(=O)n2CCC(F)(F)F` ; IC50 observed: 2.8 nM

* * *

target: human adenosine A2b receptor (Homo sapiens); experiment: Cellular in vitro reporter gene test for A2b receptor activity (antagonism of NECA); settings: recombinant CHO-K1 cells, CRE-luciferase reporter, co-incubation with EC50 concentration of NECA, 3 hours
attribute.measured: IC50 (nM)
State just the number; it will be interpreted in nM.

The cases that follow already have their IC50 on record.
Cc1c(CN2CCNC2=O)sc2c1c(=O)n(C1CC1C)c(=O)n2C[C@H]1CCCO1 (single isomer, unassigned) [Example 287]: 2.8
Cc1c(CN2CCNC(=O)C2=O)sc2c1c(=O)n(C1CC1)c(=O)n2CC1CCCO1 (racemic): 110
Cc1c(CN2CCNC2=O)sc2c1c(=O)n(C1CC1)c(=O)n2CCOC(C)C: 100
Cc1c(CN2CCNC2=O)sc2c1c(=O)n(C1CC1C)c(=O)n2CCSC(F)(F)F (racemic) [Example 279]: 1.6
COCCn1c(=O)n([C@H]2C[C@@H](OC)C2)c(=O)c2c(C)c(CN3CCNC3=O)sc21: 200

Form: molecule = Cc1c(CN2CCNC2=O)sc2c1c(=O)n(C1CC1C)c(=O)n2CC1CC(F)(F)C1 (single isomer, unassigned) [Example 254] ; IC50 = 7.2

Lab book: IC50 of Cc1c(CN2CCNC2=O)sc2c1c(=O)n(C1(C)CC1)c(=O)n2CC1CC1(F)F (single isomer, unassigned) [Example 64] noted as 13

In plain terms, `CO[C@H]1C[C@H](n2c(=O)c3c(C)c(CN4CCNC4=O)sc3n(CCC(F)(F)F)c2=O)C1` has a documented IC50 of 10

`COCCn1c(=O)n(C2(C)CCC2)c(=O)c2c(C)c(CN3CCNC3=O)sc21` yielded IC50 of 310

Field IC50 (entry COCCn1c(=O)n(C2CC2(C)C)c(=O)c2c(C)c(CN3CCNC3=O)sc21 (single isomer, unassigned) [Example 105] ) reads 92

// sample `Cc1c(Cn2nc[nH]c2=O)sc2c1c(=O)n(C1(C)CC1)c(=O)n2CCOC(F)(F)F` , its IC50 was 8.5

What the record says about `Cc1c(CN2CCNC2=O)sc2c1c(=O)n(C1CCCC1)c(=O)n2CCC(F)(F)F` : IC50 is 6.9

get_value(item= `Cc1c(CN2CCNC2=NC#N)sc2c1c(=O)n(C1CC3(CCC3)C1)c(=O)n2CCC(F)(F)F` , readout=IC50) returns 18

Data point: `COCCn1c(=O)n(C2CC(F)(F)C2)c(=O)c2c(C)c(CN3CCNC3=O)sc21` ; IC50 = 33

Value of IC50 reported for the molecule COCCn1c(=O)n(C2CC2C(F)(F)F)c(=O)c2c(C)c(Cn3nc[nH]c3=O)sc21 (racemic) [Example 297] is 120

* * *

molecular target: human adenosine A2b receptor (Homo sapiens); test: Cellular in vitro reporter gene test for A2b receptor activity (antagonism of NECA); conditions: recombinant CHO-K1 cells, CRE-luciferase reporter, co-incubation with EC50 concentration of NECA, 3 hours
attribute.measured: pIC50
// pIC50 is dimensionless: -log10 of concentration (M)

Cc1c(Cn2nc[nH]c2=O)sc2c1c(=O)n(C1CC1)c(=O)n2CC1CCCC1(F)F (single isomer, unassigned) [Example 208]: 8.00
COCCn1c(=O)n(C2CC(C)(C)C2)c(=O)c2c(C)c(CN3CCNC3=NC#N)sc21 [Example 170]: 8.07

Value of pIC50 reported for the molecule Cc1c(Cn2nc[nH]c2=O)sc2c1c(=O)n(C1CC1)c(=O)n2CC(F)F [Example 199] is 6.89

* * *

Biological target: human adenosine A2b receptor (Homo sapiens, UniProt P29275)
Sequence (P29275 1-332): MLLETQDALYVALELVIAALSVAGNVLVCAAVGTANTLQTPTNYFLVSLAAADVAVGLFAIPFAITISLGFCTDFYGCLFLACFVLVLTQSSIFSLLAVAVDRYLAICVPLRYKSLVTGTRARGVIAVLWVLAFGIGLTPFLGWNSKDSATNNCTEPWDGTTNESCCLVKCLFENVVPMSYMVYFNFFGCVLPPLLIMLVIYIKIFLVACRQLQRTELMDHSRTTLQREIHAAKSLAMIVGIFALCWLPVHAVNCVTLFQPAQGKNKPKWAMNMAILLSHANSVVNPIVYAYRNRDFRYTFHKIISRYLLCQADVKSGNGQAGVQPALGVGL
Experiment: Cellular in vitro reporter gene test for A2b receptor activity (antagonism of NECA)
Conditions: recombinant CHO-K1 cells, CRE-luciferase reporter, co-incubation with EC50 concentration of NECA, 3 hours
pIC50: −log10 of the molar value.
Classify by measured pIC50: Condition met if it is equal to or exceeds 7, Condition not met if it is smaller.

Here are 10 molecules together with their reported answers.
CCC1(n2c(=O)c3c(C)c(CN4CCNC4=O)sc3n(CCC(F)(F)F)c2=O)CC1: Condition met
COCCn1c(=O)n(C2CC2)c(=O)c2c(C)c(CN3CCNC3=NC#N)sc21: Condition met
Cc1c(Cn2nc[nH]c2=O)sc2c1c(=O)n(C1(C)CC1)c(=O)n2CCOC(C)C: Condition not met
Cc1c(CN2CCNC2=O)sc2c1c(=O)n(C1CC1)c(=O)n2CC1CC1(F)F (racemic): Condition met
COCCn1c(=O)n(C2CC2OC)c(=O)c2c(C)c(CN3CCNC3=O)sc21 (single isomer, unassigned) [Example 307]: Condition met
COCCn1c(=O)n(C2CCCC2)c(=O)c2c(C)c(Cn3nc[nH]c3=O)sc21: Condition not met
COC(=O)N=C1NCCN1Cc1sc2c(c1C)c(=O)n(C1CC1C)c(=O)n2CCOC(F)(F)F (single isomer, unassigned) [Example 268]: Condition met
CCOCCn1c(=O)n(C2CC2)c(=O)c2c(C)c(Cn3nc[nH]c3=O)sc21: Condition not met
CCn1c(=O)n(C2CC2)c(=O)c2c(C)c(Cn3nc[nH]c3=O)sc21: Condition not met
CCCCn1c(=O)n(C2CC2)c(=O)c2c(C)c(Cn3nc[nH]c3=O)sc21: Condition met

Tell me whether pIC50 is at least 7 here: `COCCn1c(=O)n(C2(C)CC2)c(=O)c2c(C)c(Cn3cc[nH]c3=O)sc21`
Condition met

pIC50 >= 7 for Cc1c(Cn2nc[nH]c2=O)sc2c1c(=O)n([C@H]1C[C@@H]1C)c(=O)n2CC1CC1(F)F (stereo partly shown) ?
Condition met

Tell me whether pIC50 is at least 7 here: `COC(=O)N=C1NCCN1Cc1sc2c(c1C)c(=O)n([C@H]1C[C@@H](OC)C1)c(=O)n2CCC(F)(F)F`
Condition met
